# TARGET: CDK7 (Homo sapiens)
# Sequence (P50613 whole entry): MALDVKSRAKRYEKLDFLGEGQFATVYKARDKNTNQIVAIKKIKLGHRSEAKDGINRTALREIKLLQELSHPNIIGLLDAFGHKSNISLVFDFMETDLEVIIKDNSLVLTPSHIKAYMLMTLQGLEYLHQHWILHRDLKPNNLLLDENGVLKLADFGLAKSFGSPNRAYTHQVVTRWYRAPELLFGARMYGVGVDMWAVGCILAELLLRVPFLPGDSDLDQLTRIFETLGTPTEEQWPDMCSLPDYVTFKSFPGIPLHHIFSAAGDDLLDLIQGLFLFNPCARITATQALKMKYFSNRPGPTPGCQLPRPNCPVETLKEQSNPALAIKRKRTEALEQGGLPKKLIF
# ASSAY TEXT: NanoBRET live-cell target engagement, NanoLuc-CDK7 in HEK-293
# Type: binding
# CONDITION CONTEXT: CDK7; experiment 1; read-out: Inhibition at 10µM (%)
Would you mind labelling by inhibition at 10 µM? At or over 30% is met, under is not met.

Query string: Textbook exercise: given the entry N#CCNC(=O)c1ccc(-c2ccnc(Nc3ccc(N4CCOCC4)cc3)n2)cc1 , state whether its inhibition at 10 µM is greater than or equal to 30%.
Result string: not met

Query string: Textbook exercise: given the entry CN1CCN(c2ccc(Nc3ncc4cc(C#N)c(=O)n(C5CCCC5)c4n3)cc2)CC1 , state whether its inhibition at 10 µM is greater than or equal to 30%.
Result string: not met

Query string: Textbook exercise: given the entry CCc1cnn2c(NCc3ccc[n+]([O-])c3)cc(N3CCCC[C@H]3CCO)nc12 , state whether its inhibition at 10 µM is greater than or equal to 30%.
Result string: met

Query string: Textbook exercise: given the entry Cn1cc(-c2ccc(-c3cncc(Cl)c3N3CCC4(CCNC4=O)CC3)cc2)cn1 , state whether its inhibition at 10 µM is greater than or equal to 30%.
Result string: not met

Query string: Textbook exercise: given the entry CC(C)N1CCN(c2ccc(Nc3ncc4cc5n(c4n3)C3(CCCCC3)CNC5=O)nc2)CC1 , state whether its inhibition at 10 µM is greater than or equal to 30%.
Result string: not met

Query string: Textbook exercise: given the entry COc1ccc(F)cc1-c1cc(NC(=O)C2CCCNC2)ncc1Cl (centres unmarked) , state whether its inhibition at 10 µM is greater than or equal to 30%.
Result string: met

Query string: Textbook exercise: given the entry CN1CCN(Cc2ccc(NC(=O)Nc3ccc(Oc4ccnc(N)n4)cc3)cc2C(F)(F)F)CC1 , state whether its inhibition at 10 µM is greater than or equal to 30%.
Result string: met

Query string: Textbook exercise: given the entry CN1CC[C@H](c2c(O)cc(O)c3c(=O)cc(-c4ccccc4Cl)oc23)[C@H](O)C1 , state whether its inhibition at 10 µM is greater than or equal to 30%.
Result string: met
